test: Selectivity index, ratio of CC50 for cytotoxicity against human H1-HeLa cells infected with 1 MOI human rhinovirus 21 to EC50 for antiviral activity against Human rhinovirus 21 infected in human H1-HeLa cells; format: toxicity, cell-based; details: H1-HeLa cells infected with human rhinovirus 21, read-out: Ratio CC50/EC50
# reported selectivity ratio; entries follow

[
  {
    "mol": "COc1ccc(-c2sc(NC(=O)C(C)(C)C)nc2C)cc1S(=O)(=O)CCc1ccncc1",
    "reported endpoint": "selectivity ratio",
    "observed": "> 7"
  },
  {
    "mol": "COc1ccc(-c2sc(NC(C)=O)nc2C)cc1S(=O)(=O)CCN1CCOCC1",
    "reported endpoint": "selectivity ratio",
    "observed": "> 6"
  }
]

Query string: Recall and state the measured selectivity ratio for `COc1ccc(-c2sc(NC(=O)C(C)(C)C)nc2C)cc1S(=O)(=O)NCCN1CCOCC1` .
Result string: > 11

Query string: Recall and state the measured selectivity ratio for `COc1ccc(-c2sc(NC(=O)C(C)(C)C)nc2C)cc1S(=O)(=O)NCc1cccc(S(C)(=O)=O)c1` .
Result string: > 4

Query string: Recall and state the measured selectivity ratio for `COc1ccc(-c2sc(NC(C)=O)nc2C)cc1` .
Result string: > 1

Query string: Recall and state the measured selectivity ratio for `COCCNS(=O)(=O)c1cc(-c2sc(NC(=O)C(C)(C)C)nc2C)ccc1OC` .
Result string: > 13

Query string: Recall and state the measured selectivity ratio for `CC(=O)Nc1nc(C)c(-c2ccc(Cl)c(S(=O)(=O)NCCO)c2)s1` .
Result string: 10

Query string: Recall and state the measured selectivity ratio for `COc1ccc(-c2sc(NC(=O)C(C)(C)C)nc2C)cc1S(=O)(=O)NCCNC(C)=O` .
Result string: > 2

Origin of the recorded values: ChEMBL document CHEMBL5376018
